molecular target: human TYK2 catalytic kinase (JH1) domain (Homo sapiens (Human)); test: ADP-Glo Kinase Assay, recombinant TYK2 catalytic kinase (JH1) domain; format: biochemical; conditions: recombinant JH1 domain 2 nM, 10 μM ATP, JAK3-974 peptide, mean, read-out: TYK2 biochem IC50 (nM) Mean
Sequence (P29597 897-1176): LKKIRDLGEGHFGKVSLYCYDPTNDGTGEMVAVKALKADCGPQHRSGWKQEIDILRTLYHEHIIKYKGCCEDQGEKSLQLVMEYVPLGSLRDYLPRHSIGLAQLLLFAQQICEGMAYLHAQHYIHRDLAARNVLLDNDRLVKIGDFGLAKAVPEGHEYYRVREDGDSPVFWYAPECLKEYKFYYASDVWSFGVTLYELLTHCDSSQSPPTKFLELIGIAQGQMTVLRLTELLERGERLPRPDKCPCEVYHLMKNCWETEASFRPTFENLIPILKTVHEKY
property.name: IC50 (nM)
Hi! Could you send only the number? It should be in nM, unit omitted.

Recorded results for 4 molecules are shown here.
> print(dat)
                                   molecule                              study.system  property.name  unit.symbol  value.reported
1  O=C([C@H]1C[C@H]1F)N1C2CCC1CN(c1ncnn3cc(-c4cnn(C(F)F)c4)cc13)C2 (racemic) [Example 46]  human TYK2 catalytic kinase (JH1) domain (Homo sapiens (Human))           IC50           nM             668
2  CC(C)C(=O)N1C2CCC1CN(c1ncnn3cc(-c4cnn(C(F)F)c4)cc13)C2 [Example 42]  human TYK2 catalytic kinase (JH1) domain (Homo sapiens (Human))           IC50           nM             466
3  O=C(C1CCC1(F)F)N1C2CCC1CN(c1ncnn3cc(-c4cnn(C(F)F)c4)cc13)C2 (stereo not shown) [Example 11]  human TYK2 catalytic kinase (JH1) domain (Homo sapiens (Human))           IC50           nM             506
4  COc1cc(-c2cc3c(N4CC5CCC(C4)N5C(=O)[C@@H]4C[C@H]4F)c(F)cnc3[nH]2)ccn1 [Example 139]  human TYK2 catalytic kinase (JH1) domain (Homo sapiens (Human))           IC50           nM             5.5

INPUT: What value of IC50 has been reported for the following molecule? COc1cc(-c2nc3c(N4CC5CCC(C4)N5S(=O)(=O)C4CC4)ccnc3[nH]2)ccn1 [Example 196]
OUTPUT: 66.3

INPUT: Continue with N#CC1CC(C(=O)N2C3CCC2CN(c2ncnn4cc(-c5cnn(C(F)F)c5)cc24)C3)C1 (stereo not shown) [Example 12]
OUTPUT: 656

INPUT: Next molecule up: COc1ccc(-c2cc3c(N4CC5CCC(C4)N5C(=O)[C@@H]4C[C@H]4F)ccnn3c2)cn1 [Example 114]
OUTPUT: 3.8

* * *

target: human JAK2 catalytic kinase (JH1) domain (Homo sapiens (Human)); experiment: ADP-Glo Kinase Assay, recombinant JAK2 catalytic kinase (JH1) domain; format: biochemical; settings: recombinant JH1 domain 0.2 nM, 15 μM ATP, JAK3-974 peptide, mean, read-out: JAK2 biochem IC50 (nM) Mean
Sequence (O60674 849-1124): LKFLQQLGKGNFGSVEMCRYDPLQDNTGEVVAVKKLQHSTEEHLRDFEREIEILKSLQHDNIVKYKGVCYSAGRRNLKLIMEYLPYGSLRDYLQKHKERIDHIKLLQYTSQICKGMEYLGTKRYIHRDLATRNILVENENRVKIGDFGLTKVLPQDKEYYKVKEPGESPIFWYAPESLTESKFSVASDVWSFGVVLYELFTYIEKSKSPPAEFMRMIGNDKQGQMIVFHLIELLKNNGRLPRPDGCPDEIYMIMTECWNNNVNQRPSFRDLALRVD
property.name: IC50

Past entries and their recorded results:
> print(dat)
                                   compound  value.reported
1  Cn1cc(-c2cc3c(N4CC5CCC(C4)N5C(=O)[C@H]4C[C@@H]4F)ncnn3c2)cn1 (single isomer, unassigned) [Example 81]         1450 nM
2  CNc1cc(-c2cc3c(N4CC5CCC(C4)N5C(=O)[C@@H]4C[C@H]4F)ccnn3c2)ccn1           18 nM
3  CNc1ccc(-c2cc3c(N4CC5CCC(C4)N5C(=O)[C@@H]4C[C@H]4F)ccnn3c2)cn1           73 nM
4  CN(C)c1ccc(-c2cc3c(N4CC5CCC(C4)N5C(=O)[C@@H]4C[C@H]4F)ncnc3[nH]2)cn1          244 nM
5  COc1cc(-c2cc3c(N4CC5CCC(C4)N5S(=O)(=O)C4CC4)ccnc3[nH]2)ccn1           80 nM

INPUT: # query: IC50 of entry Cc1c(-c2cnn(C)c2)[nH]c2nccc(N3CC4CCC(C3)N4C(=O)[C@@H]3C[C@H]3F)c12
OUTPUT: 251 nM

INPUT: Let us now turn to Cn1cc(-c2cc3c(N4CC5CCC(C4)N5C(=O)[C@@H]4C[C@H]4F)ncnn3c2)cc(F)c1=O
OUTPUT: 1740 nM

INPUT: Please answer likewise for CN(C)c1cc(-c2cc3c(N4CC5CCC(C4)N5C(=O)[C@@H]4C[C@H]4F)ccnn3c2)cnn1
OUTPUT: 395 nM

INPUT: Entry to check: O=C(C1CC1)N1C2CCC1CN(c1ccnn3cc(-c4cnn(C(F)(F)F)c4)cc13)C2
OUTPUT: 532 nM

INPUT: Now the compound O=C([C@@H]1C[C@H]1F)N1C2CCC1CN(c1ccnc3[nH]c(C4CCC4)nc13)C2
OUTPUT: 8500 nM

INPUT: CC(C)C(=O)N1C2CCC1CN(c1ncnn3cc(-c4cnn(C)c4)cc13)C2 , same question.
OUTPUT: 10000 nM

INPUT: Would you kindly repeat that for O=C(N1C2CCC1CN(c1ncnn3cc(-c4cnn(C(F)F)c4)cc13)C2)C(F)(F)F ?
OUTPUT: 6080 nM

INPUT: Moving on to CN1CCOC(c2nc3c(N4CC5CCC(C4)N5C(=O)[C@@H]4C[C@H]4F)ccnc3[nH]2)C1 (stereo partly drawn)
OUTPUT: 10000 nM

INPUT: Now consider O=C(C1CC1)N1C2CCC1CN(c1ccnn3cc(-c4cnn(C(F)F)c4)cc13)C2 .
OUTPUT: 257 nM

INPUT: Same again, this time with CCn1cc(-c2cc3c(N4CC5CCC(C4)N5C(=O)C4CC4)ncnn3c2)cn1
OUTPUT: 2960 nM
